Catalogue of molecules with associated pIC50
target: Kras and SOS1 (biotin-tagged human Kras loaded with GDP, His-tagged human SOS1) (Homo sapiens, UniProt P01116, G12D); construct: made in house; host or cells: E. coli (stated for Kras only); assay: Protein-protein interaction inhibition between Kras and SOS1 (KrasGl2D-SOS PPI) using AlphaScreen; format: binding; conditions: AlphaScreen; biotin-tagged human Kras loaded with GDP, His-tagged human SOS1; read-out: KRAS G12D-SOS PPI IC50
Sequence (P01116 1-188 isoform P01116-2 G12D): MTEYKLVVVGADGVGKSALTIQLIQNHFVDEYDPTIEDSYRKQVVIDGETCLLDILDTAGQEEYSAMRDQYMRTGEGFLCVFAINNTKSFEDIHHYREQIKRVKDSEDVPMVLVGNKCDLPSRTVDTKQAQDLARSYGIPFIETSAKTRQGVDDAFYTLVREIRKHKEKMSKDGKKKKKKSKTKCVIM
Positions of bridges follow the written chain, without caps; N, C: chain ends. Non-standard residues stand in square brackets, D forms with d. Residues, ends and D or L forms follow the SMILES beside them. *: point of attachment. hPhe(3-Cl-4-CF3) = N[C@@H](CCc1ccc(C(F)(F)F)c(Cl)c1)C(=O)O; NMeAbu(4,4,4-F3) = CN[C@@H](CC(F)(F)F)C(=O)O; NMePhe(4-Cl) = CN[C@@H](Cc1ccc(Cl)cc1)C(=O)O; NMeAla(cPent) = CN[C@@H](CC1CCCC1)C(=O)O; Phe(3-Cl) = N[C@@H](Cc1cccc(Cl)c1)C(=O)O; NMeChg = CN[C@H](C(=O)O)C1CCCCC1; NMeF = CN[C@@H](Cc1ccccc1)C(=O)O; NMeD = CN[C@@H](CC(=O)O)C(=O)O; NMeL = CN[C@@H](CC(C)C)C(=O)O; NMeA = CN[C@@H](C)C(=O)O; Pyrrolidide = C1CCN(*)C1; Ac5c = NC1(C(=O)O)CCCC1; Sar = CNCC(=O)O
As a rule, pIC50 stands for the negative log10 of the concentration, concentration in M.

[[record]]
molecule = "CC[C@H](C)[C@@H]1NC(=O)[C@H](C)N(C)C(=O)C[C@@H](C(=O)N2CCCC2)NC(=O)[C@H](CC(C)C)N(C)C(=O)[C@H](Cc2ccccc2)N(C)C(=O)[C@H](CC(C)C)NC(=O)[C@H](Cc2cccc(Cl)c2)NC(=O)CN(C)C(=O)[C@H](Cc2ccc(Cl)cc2)N(C)C(=O)CN(C)C(=O)CN(C)C1=O [Compound 758] ([NMeA]I[Sar][Sar][NMePhe(4-Cl)][Sar][Phe(3-Cl)]L[NMeF][NMeL]D-Pyrrolidide; lactam N-11)"
valuemeasured = 6.85


Continue with the next molecule.
// query pIC50 value for entry CC[C@H](C)[C@@H]1NC(=O)[C@H](CC(F)(F)F)N(C)C(=O)C[C@@H](C(=O)N2CCCC2)N(C)C(=O)[C@H](C2CCCCC2)N(C)C(=O)C2(CCCC2)NC(=O)[C@@H]2CCCN2C(=O)[C@H](CCc2ccc(C(F)(F)F)c(Cl)c2)NC(=O)CN(C)C(=O)[C@H](CC2CCCC2)N(C)C(=O)CN(C)C(=O)CN(C)C1=O [Compound 326] ([NMeAbu(4,4,4-F3)]I[Sar][Sar][NMeAla(cPent)][Sar][hPhe(3-Cl-4-CF3)]P[Ac5c][NMeChg][NMeD]-Pyrrolidide; lactam N-11)
9.15

* * *

Overview of recorded pIC50 for various compounds
molecular target: Kras and SOS1 (biotin-tagged human Kras loaded with GDP, His-tagged human SOS1) (Homo sapiens, UniProt P01116, G12D); construct: made in house; host or cells: E. coli (stated for Kras only); assay: Protein-protein interaction inhibition between Kras and SOS1 (KrasGl2D-SOS PPI) using AlphaScreen; format: binding; conditions: AlphaScreen; biotin-tagged human Kras loaded with GDP, His-tagged human SOS1; read-out: KRAS G12D-SOS PPI IC50
Starred links: 1 amine or outer side, 2 acyl side, 3 side chain; linkers in the order of their positions; H or OH if unused. Positions of bridges follow the written chain, without caps; N, C: chain ends. Non-standard residues stand in square brackets, D forms with d. Residues, ends and D or L forms follow the SMILES beside them. *: point of attachment. hPhe(3-Cl-4-CF3) = N[C@@H](CCc1ccc(C(F)(F)F)c(Cl)c1)C(=O)O; hPhe(3-F,4-CF3) = N[C@@H](CCc1ccc(C(F)(F)F)c(F)c1)C(=O)O; X48 = O=C([C@H](CCc1ccc(S(F)(F)(F)(F)F)cc1)N[*:1])[*:2]; NMePhe(4-CF3) = CN[C@@H](Cc1ccc(C(F)(F)F)cc1)C(=O)O; hPhe(4-CF3) = N[C@@H](CCc1ccc(C(F)(F)F)cc1)C(=O)O; NMeAbu(4,4,4-F3) = CN[C@@H](CC(F)(F)F)C(=O)O; NMePhe(4-Cl) = CN[C@@H](Cc1ccc(Cl)cc1)C(=O)O; NMeGly(cPent) = CN[C@H](C(=O)O)C1CCCC1; NMe4Pal = CN[C@@H](Cc1ccncc1)C(=O)O; NMeCha = CN[C@@H](CC1CCCCC1)C(=O)O; NMeChg = CN[C@H](C(=O)O)C1CCCCC1; NMeF = CN[C@@H](Cc1ccccc1)C(=O)O; NMeD = CN[C@@H](CC(=O)O)C(=O)O; NMeL = CN[C@@H](CC(C)C)C(=O)O; NMeV = CN[C@H](C(=O)O)C(C)C; d(β3hA) = C[C@@H](N)CC(=O)O; Azetidin(1-yl) = C1CN(*)C1; Morpholide = C1CN(*)CCO1; NMeA = CN[C@@H](C)C(=O)O; Piperidide = C1CCN(*)CC1; Pyrrolidide = C1CCN(*)C1; Ac5c = NC1(C(=O)O)CCCC1; Aze = O=C(O)[C@@H]1CCN1; Sar = CNCC(=O)O
pIC50 is defined as minus the log10 of a concentration measured in mol/L.

Worked cases, pIC50 given:
[[record]]
compound = "CC[C@H](C)[C@@H]1NC(=O)[C@H](CC(C)C)N(C)C(=O)C[C@@H](C(=O)N2CCCC2)NC(=O)[C@H](CC(C)C)N(C)C(=O)C2(CCCC2)NC(=O)[C@@H]2CCCN2C(=O)[C@H](CCc2ccc(C(F)(F)F)c(F)c2)NC(=O)CN(C)C(=O)[C@H](CC2CCCCC2)N(C)C(=O)CN(C)C(=O)CN(C)C1=O [Compound 1489] ([NMeL]I[Sar][Sar][NMeCha][Sar][hPhe(3-F,4-CF3)]P[Ac5c][NMeL]D-Pyrrolidide; lactam N-11)"
valuemeasured = 7.74

[[record]]
compound = "CC[C@H](C)[C@@H]1NC(=O)[C@H](CC(C)C)N(C)C(=O)C[C@@H](C(=O)N2CCC2)N(C)C(=O)[C@H](C2CCCC2)N(C)C(=O)C2(CCCC2)NC(=O)[C@@H]2CCCN2C(=O)[C@H](CCc2ccc(C(F)(F)F)c(Cl)c2)NC(=O)CN(C)C(=O)[C@H](CC2CCCCC2)N(C)C(=O)[C@@H]2CCN2C(=O)[C@H](C)N(C)C1=O [Compound 515] ([NMeL]I[NMeA][Aze][NMeCha][Sar][hPhe(3-Cl-4-CF3)]P[Ac5c][NMeGly(cPent)][NMeD]-{Azetidin(1-yl)}; lactam N-11)"
valuemeasured = 9.26

[[record]]
compound = "CC[C@H](C)[C@@H]1NC(=O)[C@H](CC(C)C)N(C)C(=O)C[C@@H](C(=O)N2CCCCC2)N(C)C(=O)[C@H](C(C)C)N(C)C(=O)C2(CCCC2)NC(=O)[C@@H]2CCCN2C(=O)[C@H](CCc2ccc(C(F)(F)F)c(Cl)c2)NC(=O)CN(C)C(=O)[C@H](Cc2ccccc2)N(C)C(=O)CN(C)C(=O)CN(C)C1=O [Compound 1598] ([NMeL]I[Sar][Sar][NMeF][Sar][hPhe(3-Cl-4-CF3)]P[Ac5c][NMeV][NMeD]-Piperidide; lactam N-11)"
valuemeasured = 8.04

[[record]]
compound = "CC[C@H](C)[C@@H]1NC(=O)[C@H](CC(C)C)N(C)C(=O)C[C@@H](C(=O)N(C)C)N(C)C(=O)[C@H](C2CCCC2)N(C)C(=O)C2(CCCC2)NC(=O)[C@H](Cc2ccncc2)N(C)C(=O)[C@H](CCc2ccc(C(F)(F)F)c(Cl)c2)NC(=O)CN(C)C(=O)[C@H](CC2CCCCC2)N(C)C(=O)[C@@H]2CCN2C(=O)[C@H](C)N(C)C1=O [Compound 1913] ([NMeL]I[NMeA][Aze][NMeCha][Sar][hPhe(3-Cl-4-CF3)][NMe4Pal][Ac5c][NMeGly(cPent)][NMeD]-NMe2; lactam N-11)"
valuemeasured = 8.96


Consider the compound CC(C)C[C@@H]1NC(=O)[C@H](CC(C)C)N(C)C(=O)C[C@@H](C(=O)N2CCCCC2)N(C)C(=O)[C@H](C(C)C)N(C)C(=O)C2(CCCC2)NC(=O)[C@@H]2CCCN2C(=O)[C@H](CCc2ccc(C(F)(F)F)c(Cl)c2)NC(=O)CN(C)C(=O)[C@H](CC2CCCCC2)N(C)C(=O)[C@@H]2CCN2C(=O)[C@H](C)N(C)C1=O [Compound 1754] ([NMeL]L[NMeA][Aze][NMeCha][Sar][hPhe(3-Cl-4-CF3)]P[Ac5c][NMeV][NMeD]-Piperidide; lactam N-11) and give its measured pIC50.
7.17

pIC50 lookup needed for CC[C@H](C)[C@@H]1NC(=O)[C@H](C)N(C)C(=O)C[C@@H](C(=O)N2CCOCC2)N(C)C(=O)[C@H](C2CCCCC2)N(C)C(=O)C2(CCCC2)NC(=O)[C@@H]2CCCN2C(=O)[C@H](CCc2ccc(C(F)(F)F)c(Cl)c2)NC(=O)CN(C)C(=O)[C@H](CC2CCCCC2)N(C)C(=O)CN(C)C(=O)CN(C)C1=O [Compound 1847] ([NMeA]I[Sar][Sar][NMeCha][Sar][hPhe(3-Cl-4-CF3)]P[Ac5c][NMeChg][NMeD]-Morpholide; lactam N-11) , thanks.
9.20

Find the recorded pIC50 belonging to CC[C@H](C)[C@@H]1NC(=O)[C@H](C(C)C)N(C)C(=O)C[C@@H](C)NC(=O)[C@H](CC(C)C)N(C)C(=O)C2(CCCC2)NC(=O)[C@H](CC(C)C)N(C)C(=O)[C@H](CCc2ccc(C(F)(F)F)cc2)NC(=O)CN(C)C(=O)[C@H](Cc2ccc(Cl)cc2)N(C)C(=O)CN(C)C(=O)[C@@H]2CCN2C1=O [Compound 538] (cyclo([Ac5c][NMeL][d(β3hA)][NMeV]I[Aze][Sar][NMePhe(4-Cl)][Sar][hPhe(4-CF3)][NMeL])) and report it.
6.96

Consider the compound CC[C@H](C)[C@@H]1NC(=O)[C@H](CC(C)C)N(C)C(=O)C[C@@H](C)NC(=O)[C@H](CC(C)C)N(C)C(=O)C2(CCCC2)NC(=O)[C@@H]2CCCN2C(=O)[C@H](CCc2ccc(S(F)(F)(F)(F)F)cc2)NC(=O)CN(C)C(=O)[C@H](CC2CCCCC2)N(C)C(=O)CN(C)C(=O)CN(C)C1=O [Compound 1021] (cyclo([Ac5c][NMeL][d(β3hA)][NMeL]I[Sar][Sar][NMeCha][Sar][X48]P)) and give its measured pIC50.
6.62

// returns reported pIC50 for input CC[C@H](C)[C@@H]1NC(=O)[C@H](CC(F)(F)F)N(C)C(=O)C[C@@H](C(=O)N2CCCC2)N(C)C(=O)[C@H](C2CCCCC2)N(C)C(=O)C2(CCCC2)NC(=O)[C@@H]2CCCN2C(=O)[C@H](CCc2ccc(C(F)(F)F)c(Cl)c2)NC(=O)CN(C)C(=O)[C@H](Cc2ccc(C(F)(F)F)cc2)N(C)C(=O)CN(C)C(=O)CN(C)C1=O [Compound 245] ([NMeAbu(4,4,4-F3)]I[Sar][Sar][NMePhe(4-CF3)][Sar][hPhe(3-Cl-4-CF3)]P[Ac5c][NMeChg][NMeD]-Pyrrolidide; lactam N-11)
9.43
